The reported measurements were obtained from patent US7585997B2.

Catalogue of IC50 values
- Tested on: HT-29 human colon adenocarcinoma
- Test name: Cell growth inhibition, HT-29 cells
- Format: cell-based
- Settings: HT-29, 24 h, read-out: IC50, HT-29, colon
Express your answer in µM, writing the number without its unit.

The following molecules have reported results that may help.
- Smiles: "O=C(/C=C/c1ccc(O)c(O)c1)Oc1ccc(CCl)cc1"
  Observable: "IC50"
  Readout units: "µM"
  Readout number: 0.25
- Smiles: "CC(=O)Oc1ccccc1C(=O)Nc1ccc(CBr)cc1"
  Observable: "IC50"
  Readout units: "µM"
  Readout number: 7

// moving on: another record for IC50
Q) Item "CC(=O)Oc1ccccc1C(=O)Nc1ccc(CCl)cc1" has what recorded IC50?
A) 12
